# Tested on: HOP-62 NSCLC
# EXPERIMENTAL_DETAILS: NCI tumour cell line growth inhibition, 48 h
Assignment: determine reported TGI for the given compounds.
Reply with just the number (in µM).

Prompt: Report TGI for "COc1cc(C(=O)/C=C/c2c(C)n([O-])c3ccc(Cl)cc3[n+]2=O)cc(OC)c1OC" please.
Completion: 71

Prompt: Report TGI for CC(CSc1nc2c(c(=N)n1-c1ccccc1)c(=S)n(-c1ccccc1)c(=S)n2-c1ccccc1)CN(C)C (configuration not stated) please.
Completion: 3.62

Prompt: Report TGI for "O=C(N[C@H]1CC2(C=C(I)C(=O)C(I)=C2)OC1=O)OCc1ccccc1" please.
Completion: 45.6
